# Tested on: MCF7
# method: Antiproliferative activity against human MCF7 cells after 3 days by MTT assay
# Type: functional, cell-based
# recorded-conditions: MCF7, 72 h
Catalogue of IC50 values

1) CC(=O)N[C@@H](Cc1ccccc1)C(=O)OC[C@@H](Cc1ccccc1)NC(=O)c1ccccc1	> 100 µM
2) O=C(N[C@@H](COC(=O)[C@H](Cc1ccccc1)NC(=O)c1cccc(O)c1)Cc1ccccc1)c1ccccc1	> 100 µM
3) O=C(Cc1ccc(O)cc1)N[C@@H](Cc1ccccc1)C(=O)OC[C@@H](Cc1ccccc1)NC(=O)c1ccccc1	> 100 µM
4) CC(=O)N[C@H](Cc1ccccc1)C(=O)OC[C@@H](Cc1ccccc1)NC(=O)c1ccccc1	> 100 µM
5) O=C(Cc1ccc(O)cc1)N[C@H](Cc1ccccc1)C(=O)OC[C@H](Cc1ccccc1)NC(=O)c1ccccc1	> 100 µM

Item C[C@@H](NC(=O)c1ccccc1)C(=O)OC[C@H](Cc1ccccc1)NC(=O)c1ccccc1 has what recorded IC50?
> 100 µM

Item O=C(N[C@H](COC(=O)[C@@H](Cc1ccccc1)NC(=O)c1ccc(O)cc1)Cc1ccccc1)c1ccccc1 has what recorded IC50?
53.2 µM

Item O=C(Cc1ccccc1OCc1ccccc1)N[C@@H](Cc1ccccc1)C(=O)OC[C@H](Cc1ccccc1)NC(=O)c1ccccc1 has what recorded IC50?
> 100 µM
